tested_target: γ complex (clamp loader, γ3δδ'χψ), wild type;β clamp (Escherichia coli;Escherichia coli, UniProt P06710-2;P28630;P28631;P28905;P28632;P0A988 1-431;1-343;1-334;1-147;1-137;1-366, |)
assay_name: fluorescence anisotropy
measurement_label: Kd (nM)
Give bare numbers, in nM.

Problem: Need Kd, item 30 nt/55 nt p/tDNA (mixed, 5' amino linker on template (S2)) DNA 1: TGAGCGTTTTTCCTGTTGCAATGGCTGGCGGTAATATTGTTCTGGATATTACCAG DNA 2: CTGGTAATATCCAGAACAATATTACCGCCA
Solution: 60
